These data points were gathered from the supplement of paper PMC11451515.

Test system: SEM cells
Test: cell viability relative to DMSO control; higher = less cytotoxic
Condition Set: HPLM + 10% dialyzed FBS; 48 h; 5.12 µM
Consider the following compounds; for each one, report its cell viability.
The answer consists of two parts: a number and, after it, its unit.

What cell viability appears in the records for this compound with SEM cells? O=C(O)c1ccccc1C(=O)Nc1ccc(-c2ccccc2)cc1
127%

What cell viability appears in the records for this compound with SEM cells? CCC[C@@H]1C[C@@H](C(=O)N[C@@H]([C@H]2O[C@H](SC)[C@H](O)[C@@H](O)[C@H]2O)[C@@H](C)O)N(C)C1.Cl
103%

What cell viability appears in the records for this compound with SEM cells? C#Cc1cccc(Nc2ncnc3cc(OCCOC)c(OCCO)cc23)c1
96.8%

What cell viability appears in the records for this compound with SEM cells? Cc1cccc(C)c1NC(=O)CN1CCCC1=O
122%

What cell viability appears in the records for this compound with SEM cells? O=C(Cc1cccc(OC(F)(F)F)c1)Nc1ccc(CCCCc2nnc(NC(=O)Cc3ccccn3)s2)nn1
79.5%
